molecular target: pSTAT6 (Homo sapiens, UniProt P42226); construct: pY641-STAT6 MSD read-out; test: MSD-pSTAT-PBMC Assay, pSTAT6 (IL-4 stimulated PBMC); format: cell-based; details: compound 3 hrs, then 1 ng/mL IL-4 for 10 min, pY641-STAT6, read-out: pSTAT6 IC50
Sequence (P42226 whole entry): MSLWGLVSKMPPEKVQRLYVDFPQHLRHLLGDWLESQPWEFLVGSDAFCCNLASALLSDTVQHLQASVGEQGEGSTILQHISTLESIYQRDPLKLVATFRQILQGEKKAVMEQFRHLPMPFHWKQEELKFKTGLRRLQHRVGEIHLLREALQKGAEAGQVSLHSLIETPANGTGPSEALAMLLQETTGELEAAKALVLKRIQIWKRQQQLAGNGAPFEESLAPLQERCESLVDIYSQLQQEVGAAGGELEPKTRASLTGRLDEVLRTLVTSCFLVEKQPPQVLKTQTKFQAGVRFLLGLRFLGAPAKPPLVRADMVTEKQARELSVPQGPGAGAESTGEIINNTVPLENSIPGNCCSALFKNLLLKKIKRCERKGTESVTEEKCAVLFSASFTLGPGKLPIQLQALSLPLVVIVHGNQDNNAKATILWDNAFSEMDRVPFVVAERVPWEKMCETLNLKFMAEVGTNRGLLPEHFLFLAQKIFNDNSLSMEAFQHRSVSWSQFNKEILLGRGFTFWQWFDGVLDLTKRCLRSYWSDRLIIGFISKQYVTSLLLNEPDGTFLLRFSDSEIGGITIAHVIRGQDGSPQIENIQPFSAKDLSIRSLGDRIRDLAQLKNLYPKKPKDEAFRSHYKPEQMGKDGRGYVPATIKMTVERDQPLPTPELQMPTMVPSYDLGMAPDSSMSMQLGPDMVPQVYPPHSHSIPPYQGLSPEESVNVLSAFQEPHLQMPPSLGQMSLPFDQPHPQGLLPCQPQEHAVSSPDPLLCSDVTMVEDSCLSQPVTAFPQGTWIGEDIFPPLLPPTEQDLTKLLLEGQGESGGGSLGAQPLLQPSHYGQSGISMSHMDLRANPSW
pIC50: −log10 of the molar value.

MOLECULE	MEASUREMENT TARGET	pIC50
Cc1ccc2onc(C(=O)N3CC[C@H]4CC[C@@H](C(=O)N(C)CCCCCCC#Cc5cccc6c5CN(C5CCC(=O)NC5=O)C6=O)N4C(=O)[C@@H](NC(=O)c4ccc5ccc(C(F)(F)P(=O)(O)OCOC(=O)OC(C)C)cc5c4)C3)c2c1 (stereo partly shown)	pSTAT6 (Homo sapiens, UniProt P42226)	5.52 to 6.00
Cc1ccc2onc(C(=O)N3CC[C@H]4CC[C@@H](C(=O)N(C)CCCCOc5ccc(C6CCC(=O)NC6=O)cc5)N4C(=O)[C@@H](NC(=O)c4ccc5ccc(C(F)(F)P(=O)(O)O)cc5c4)C3)c2c1 (stereo partly shown)	pSTAT6 (Homo sapiens, UniProt P42226)	< 5.52
Cc1ccc2onc(C(=O)N3CC[C@H]4CC[C@@H](C(=O)N5CCN(c6cccc7c6[nH]c(=O)n7C6CCC(=O)NC6=O)CC5)N4C(=O)[C@@H](NC(=O)c4ccc5ccc(C(F)(F)P(=O)(O)O)cc5c4)C3)c2c1 (stereo partly shown)	pSTAT6 (Homo sapiens, UniProt P42226)	< 5.52
Cc1ccc2onc(C(=O)N3CC[C@H]4CC[C@@H](C(=O)N(C)CCCCCCC#Cc5cccc6c5CN(C5CCC(=O)NC5=O)C6=O)N4C(=O)[C@@H](NC(=O)c4ccc5ccc(C(F)(F)P(=O)(O)OCCSC(=O)C(C)(C)C)cc5c4)C3)c2c1 (stereo partly shown)	pSTAT6 (Homo sapiens, UniProt P42226)	< 5.52
O=C1CCC(N2Cc3c(C#CCCCCCC(=O)N4CC[C@H]5CC[C@@H](C(=O)N6CC(c7cccnc7)C6)N5C(=O)[C@@H](NC(=O)c5cc6cc(C(F)(F)P(=O)(O)O)ccc6s5)C4)cccc3C2=O)C(=O)N1 (stereo partly shown)	pSTAT6 (Homo sapiens, UniProt P42226)	< 5.52
Cc1ccc2onc(C(=O)N3CC[C@H]4CC[C@@H](C(=O)NCCOc5cc(C(C(=O)N6C[C@H](O)C[C@H]6C(=O)N[C@H](C)c6ccc(-c7scnc7C)cc6)C(C)C)on5)N4C(=O)[C@@H](NC(=O)c4ccc5ccc(C(F)(F)P(=O)(O)O)cc5c4)C3)c2c1 (stereo partly shown)	pSTAT6 (Homo sapiens, UniProt P42226)	< 5.52
Cc1ccc2onc(C(=O)N3CC[C@H]4CC[C@@H](C(=O)N(C)CCCCCCC#Cc5cccc6c5CN(C5CCC(=O)NC5=O)C6=O)N4C(=O)[C@@H](NC(=O)c4ccc5ccc(C(F)(F)P(=O)(OCCSC(=O)CC(C)C)OCCSC(=O)CC(C)C)cc5c4)C3)c2c1 (stereo partly shown)	pSTAT6 (Homo sapiens, UniProt P42226)	> 7.00
